- Protocol Text: Displacement of [3H]CGP-12177 from beta1-adrenergic receptor in rat cerebral cortex by liquid scintillation counting
- Type: tissue-based
pKi: −log10 of the molar value.
Returns yes (1) if the recorded pKi is greater than or equal to 5, and no (0) otherwise.

> print(dat)
                                   compound  discrete.label
1  COc1ccccc1N1CCN(CCCOc2cccc3c(=O)c4ccccc4oc23)CC1.Cl         yes (1)
2  Cl.Cl.O=c1c2ccccc2oc2c(OCC(O)CN3CCN(C/C=C/c4ccccc4)CC3)cccc12 (racemic)         yes (1)
3  COc1ccccc1N1CCN(CCCOc2cccc3c(=O)c4ccc(Cl)cc4oc23)CC1.Cl         yes (1)
4  COc1ccc(N2CCN(CCCOc3cccc4c(=O)c5ccccc5oc34)CC2)cc1.Cl          no (0)
5  Cl.Cl.Cl.O=c1c2ccc(Cl)cc2oc2c(OCC(O)CN3CCN(C/C=C/c4ccccc4)CC3)cccc12 (racemic)          no (0)
